Values from patent US8362022B2

Please respond with reported EC50 for every item in the list.
assayedTarget: alpha 2C receptor (Homo sapiens)
Construct: expressed in transfected cells; host or cells: NIH-3T3
assayExplanation: RSAT assay (Receptor Selection and Amplification Technology), Alpha 2C
Assay type: cell-based
settings: RSAT, transfected NIH-3T3 cells with Gq/i5; NA = not active at concentrations less than 10 micromolar; read-out: potency nM (EC50) Alpha 2C
Give bare numbers, in nM.

c1ccc(C(Cc2ccncc2)/N=C2/NCCO2)cc1 (stereo not shown) : 132
Cc1cccc(C(Cc2ccncc2)/N=C2/NCCS2)c1C (stereo not shown) : 14
Clc1cccc(C(Cc2ccncc2)/N=C2/NCCO2)c1Cl (stereo not shown) : 30
c1ccc(C(Cc2cnccn2)/N=C2/NCCS2)cc1 (stereo not shown) : 100
COc1ccccc1C(Cc1cccnc1)/N=C1/NCCO1 (stereo not shown) : 23
Fc1cccc(C(Cc2ccncc2)/N=C2/NCCO2)c1 (stereo not shown) : 237
Clc1cccc(C(Cc2ccncc2)/N=C2/NCCS2)c1Cl (stereo not shown) : 21
c1ccc([C@@H](Cc2ccncc2)/N=C2/NCCS2)cc1 : 6.1

Required: EC50, one value per compound below.
1. Cc1cccc(C(Cc2ccncc2)/N=C2/NCCO2)c1C (stereo not shown)
2. c1ccc(C(Cc2ccncc2)/N=C2/NCCS2)cc1 (stereo not shown)
3. c1ccc([C@@H](Cc2ccncc2)N=C2NCCN2)cc1
4. COc1ccccc1C(Cc1cccnc1)/N=C1/NCCS1 (stereo not shown)
5. Cc1cccc(C(Cc2cccnc2)/N=C2/NCCO2)c1C (stereo not shown)

[reply]
1. 80
2. 525
3. 96
4. 17
5. 18

* * *

Please respond with reported pEC50 for every item in the list.
assayedTarget: alpha 2B receptor (Homo sapiens)
Construct: expressed in transfected cells; host or cells: NIH-3T3
Sequence (P18089 whole entry): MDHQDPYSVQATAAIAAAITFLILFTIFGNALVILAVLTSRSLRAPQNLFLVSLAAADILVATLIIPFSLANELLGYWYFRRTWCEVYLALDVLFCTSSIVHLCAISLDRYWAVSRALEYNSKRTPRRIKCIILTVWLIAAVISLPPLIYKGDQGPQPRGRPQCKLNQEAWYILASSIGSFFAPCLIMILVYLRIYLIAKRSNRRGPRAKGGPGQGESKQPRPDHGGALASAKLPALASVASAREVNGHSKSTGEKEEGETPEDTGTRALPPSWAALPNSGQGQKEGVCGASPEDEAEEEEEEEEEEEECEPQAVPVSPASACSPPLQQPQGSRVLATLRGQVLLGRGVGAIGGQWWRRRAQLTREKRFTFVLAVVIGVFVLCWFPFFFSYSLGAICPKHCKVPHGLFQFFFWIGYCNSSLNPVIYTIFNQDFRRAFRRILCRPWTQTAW
assayExplanation: RSAT assay (Receptor Selection and Amplification Technology), Alpha 2B
Type: cell-based
Give bare numbers, as −log10 of the molar value.

c1ccc(C(Cc2ccncc2)/N=C2/NCCO2)cc1 (centres unmarked) : 8.10

Required: pEC50, one value per compound below.
1. Fc1cccc(C(Cc2ccncc2)N=C2NCCN2)c1 (centres unmarked)
2. c1ccc([C@@H](Cc2ccncc2)/N=C2/NCCO2)cc1

[reply]
[7.60, 8.22]

Required: pEC50, one value per compound below.
1. c1ccc(C(Cc2cccnc2)NC2=NCCO2)cc1 (centres unmarked)
2. Cc1cccc(C(Cc2ccncc2)N=C2NCCN2)c1C (centres unmarked)

[reply]
[8.35, 8.51]

* * *

Please respond with reported Intrinsic Activity efficacy Alpha 2C for every item in the list.
assayedTarget: alpha 2C receptor (Homo sapiens, UniProt P18825)
Construct: expressed in transfected cells; host or cells: NIH-3T3
Sequence (P18825 1-462): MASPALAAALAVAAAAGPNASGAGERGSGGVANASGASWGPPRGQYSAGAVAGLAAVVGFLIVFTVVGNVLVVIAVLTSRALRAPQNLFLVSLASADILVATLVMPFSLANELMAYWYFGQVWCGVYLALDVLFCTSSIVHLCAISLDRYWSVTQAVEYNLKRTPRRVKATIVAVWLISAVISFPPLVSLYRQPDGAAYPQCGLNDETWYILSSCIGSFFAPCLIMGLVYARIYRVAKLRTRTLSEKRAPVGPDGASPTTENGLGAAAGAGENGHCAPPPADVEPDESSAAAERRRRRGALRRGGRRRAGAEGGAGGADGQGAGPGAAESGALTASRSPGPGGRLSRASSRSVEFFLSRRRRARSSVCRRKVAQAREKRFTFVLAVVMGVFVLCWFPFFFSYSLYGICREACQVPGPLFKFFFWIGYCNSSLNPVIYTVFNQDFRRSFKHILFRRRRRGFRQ
assayExplanation: RSAT assay (Receptor Selection and Amplification Technology), Alpha 2C
Assay type: cell-based
settings: RSAT; value in parentheses; ratio of maximal effect to that of brimonidine
Answers are plain numbers.

Please review the following examples before continuing.
COc1ccccc1C(Cc1cccnc1)/N=C1/NCCO1 (stereo not shown) : 0.66
COc1ccccc1C(Cc1cccnc1)/N=C1/NCCS1 (stereo not shown) : 0.86
c1ccc(C(Cc2ccncc2)/N=C2/NCCS2)cc1 (stereo not shown) : 0.72
Cc1cccc(C(Cc2ccncc2)/N=C2/NCCO2)c1C (stereo not shown) : 0.68
Clc1cccc(C(Cc2ccncc2)/N=C2/NCCO2)c1Cl (stereo not shown) : 0.65
Fc1cccc(C(Cc2ccncc2)/N=C2/NCCO2)c1 (stereo not shown) : 0.93
Clc1cccc(C(Cc2ccncc2)/N=C2/NCCS2)c1Cl (stereo not shown) : 0.6
c1ccc([C@@H](Cc2ccncc2)N=C2NCCN2)cc1 : 0.60

Required: Intrinsic Activity efficacy Alpha 2C, one value per molecule below.
1. c1ccc(C(Cc2ccncc2)/N=C2/NCCO2)cc1 (stereo not shown)
2. Cc1cccc(C(Cc2ccncc2)N=C2NCCN2)c1C (stereo not shown)

[reply]
1: 0.67; 2: 0.49

* * *

assayedTarget: alpha 2C receptor (Homo sapiens, UniProt P18825)
Construct: expressed in transfected cells; host or cells: NIH-3T3
assayExplanation: RSAT assay (Receptor Selection and Amplification Technology), Alpha 2C
Type: cell-based
settings: RSAT; value in parentheses; ratio of maximal effect to that of brimonidine
attributeMeasured: Intrinsic Activity efficacy Alpha 2C
Answers are plain numbers.

Cc1cccc(C(Cc2ccncc2)/N=C2/NCCS2)c1C (stereo not drawn) [Compound 4] : 0.63
c1ccc([C@@H](Cc2ccncc2)/N=C2/NCCO2)cc1 [Compound 30] : 0.78
Cc1cccc(C(Cc2cccnc2)/N=C2/NCCO2)c1C (stereo not drawn) [Compound 21] : 0.4
c1ccc([C@@H](Cc2ccncc2)/N=C2/NCCS2)cc1 [Compound 31] : 1.0
c1ccc(C(Cc2cnccn2)/N=C2/NCCS2)cc1 (stereo not drawn) [Compound 16] : 0.5

Alright, here's another molecule for you.
[ask] Query for alpha 2C receptor (Homo sapiens, UniProt P18825): what Intrinsic Activity efficacy Alpha 2C does the record show for Fc1cccc(C(Cc2ccncc2)N=C2NCCN2)c1 (stereo not drawn) [Compound 25] ?
[reply] 1.03

* * *

Please respond with reported Intrinsic Activity efficacy Alpha 1A for every item in the list.
assayedTarget: Alpha 1A (Homo sapiens, UniProt P35348)
Sequence (P35348 whole entry): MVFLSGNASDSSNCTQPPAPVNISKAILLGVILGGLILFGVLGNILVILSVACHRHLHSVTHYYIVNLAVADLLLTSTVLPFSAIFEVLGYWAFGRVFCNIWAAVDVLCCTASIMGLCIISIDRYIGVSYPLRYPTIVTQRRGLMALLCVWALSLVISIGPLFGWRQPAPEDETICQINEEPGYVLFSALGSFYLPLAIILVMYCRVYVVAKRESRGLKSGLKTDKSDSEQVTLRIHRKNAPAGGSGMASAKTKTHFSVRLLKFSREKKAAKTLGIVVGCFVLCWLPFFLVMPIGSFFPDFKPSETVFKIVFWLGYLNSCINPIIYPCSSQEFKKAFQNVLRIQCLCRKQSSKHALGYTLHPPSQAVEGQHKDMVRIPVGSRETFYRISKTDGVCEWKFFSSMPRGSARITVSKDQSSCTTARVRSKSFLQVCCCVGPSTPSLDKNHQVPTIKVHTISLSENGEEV
assayExplanation: RSAT assay (Receptor Selection and Amplification Technology), Alpha 1A
Format: cell-based
settings: value in parentheses, ratio of maximal effect of drug to maximal effect of standard full agonist
Experimental: The RSAT assay measures a receptor-mediated loss of contact inhibition that results in selective proliferation of receptor-containing cells in a mixed population of confluent cells. The increase in cell number is assessed with an appropriate transfected marker gene such as β-galactosidase, the activity of which can be easily measured in a 96-well format. Receptors that activate the G protein, Gq, elicit this response. […]
Numbers only.

Cc1cccc(C(Cc2cccnc2)/N=C2/NCCO2)c1C (stereo not drawn) : 0.6
COc1ccccc1C(Cc1cccnc1)/N=C1/NCCO1 (stereo not drawn) : 1.12
Cc1cccc(C(Cc2ccncc2)/N=C2/NCCS2)c1C (stereo not drawn) : 0.77
c1ccc(C(Cc2cnccn2)/N=C2/NCCO2)cc1 (stereo not drawn) : 1.19
c1ccc(C(Cc2cnccn2)/N=C2/NCCS2)cc1 (stereo not drawn) : 1.1

Required: Intrinsic Activity efficacy Alpha 1A, one value per compound below.
1. c1ccc([C@@H](Cc2ccncc2)N=C2NCCN2)cc1
2. c1ccc([C@@H](Cc2ccncc2)/N=C2/NCCO2)cc1
3. Clc1cccc(C(Cc2ccncc2)/N=C2/NCCO2)c1Cl (stereo not drawn)
4. c1ccc(C(Cc2cnccn2)N=C2NCCN2)cc1 (stereo not drawn)
5. c1ccc(C(Cc2ccncc2)/N=C2/NCCS2)cc1 (stereo not drawn)
6. c1ccc(C(Cc2ccncc2)/N=C2/NCCO2)cc1 (stereo not drawn)

[reply]
1. 0.60
2. 1.1
3. 1.3
4. 0.72
5. 1.45
6. 1.20

Required: Intrinsic Activity efficacy Alpha 1A, one value per compound below.
1. Fc1c(Cl)cccc1C(Cc1ccncc1)/N=C1/NCCO1 (stereo not drawn)
2. Fc1cccc(C(Cc2ccncc2)/N=C2/NCCO2)c1 (stereo not drawn)
3. Fc1cccc(C(Cc2ccncc2)/N=C2/NCCS2)c1 (stereo not drawn)

[reply]
1.27
1.1
1.36

Required: Intrinsic Activity efficacy Alpha 1A, one value per compound below.
1. Clc1cccc(C(Cc2ccncc2)/N=C2/NCCO2)c1 (stereo not drawn)
2. c1ccc(C(Cc2ccncc2)N=C2NCCN2)cc1 (stereo not drawn)
3. Cc1cccc(C(Cc2cccnc2)/N=C2/NCCS2)c1C (stereo not drawn)
4. Clc1cccc(C(Cc2ccncc2)N=C2NCCN2)c1Cl (stereo not drawn)
5. Fc1c(Cl)cccc1C(Cc1ccncc1)N=C1NCCN1 (stereo not drawn)
6. c1ccc([C@@H](Cc2ccncc2)/N=C2/NCCS2)cc1
7. Cc1cccc(C(Cc2ccncc2)/N=C2/NCCO2)c1C (stereo not drawn)

[reply]
[1.4, 0.63, 0.7, 0.52, 0.6, 1.1, 0.88]
